Assay remarks: Plasma pharmacokinetics, Arm II (oral BID), phase 1 trial
Format: in vivo, human
Condition context: human, plasma, po, 230 mg, Arm II PO BID 230 mg, day 1, N=3; read-out: Cmax
Quantity name: Cmax (ng/mL)
Number in ng/mL, nothing else.

Given the compound Nc1ncc(-c2cnn(CCO)c2)c2scc(-c3ccc(NC(=O)Nc4cccc(F)c4)cc3)c12 , write its reported Cmax.
700

* * *

Assay remarks: Plasma pharmacokinetics, Arm I (oral QD), phase 1 trial
Type: in vivo, human
Condition context: human, in vivo, po, 40 mg, AUC∞
Quantity name: AUC(0-inf) (ng·h/mL)
Number in ng·h/mL, nothing else.

Given the molecule Nc1ncc(-c2cnn(CCO)c2)c2scc(-c3ccc(NC(=O)Nc4cccc(F)c4)cc3)c12 , write its reported AUC(0-inf).
1640

* * *

Assay remarks: Plasma pharmacokinetics, Arm II (oral BID), phase 1 trial
Format: in vivo, human
Condition context: human, plasma, po, 230 mg, Arm II PO BID 230 mg, day 1, N=3
Quantity name: AUC(0-t) (ng·h/mL)
Number in ng·h/mL, nothing else.

Given the compound Nc1ncc(-c2cnn(CCO)c2)c2scc(-c3ccc(NC(=O)Nc4cccc(F)c4)cc3)c12 [ilorasertib, Ilorasertib] , write its reported AUC(0-t).
10100

* * *

Assay remarks: Plasma pharmacokinetics, Arm II (oral BID), phase 1 trial
Type: in vivo, human
Condition context: human, plasma, po, 90 mg, Arm II PO BID 90 mg, day 1, N=3; read-out: Tmax
Quantity name: Tmax (h)
Number in h, nothing else.

Given the compound Nc1ncc(-c2cnn(CCO)c2)c2scc(-c3ccc(NC(=O)Nc4cccc(F)c4)cc3)c12 , write its reported Tmax.
9

* * *

Assay remarks: Plasma pharmacokinetics, Arm I (oral QD), phase 1 trial
Type: in vivo, human
Condition context: human, in vivo, po, 40 mg, t1/2 (harmonic mean)
Quantity name: half-life (h)
Number in h, nothing else.

Given the compound Nc1ncc(-c2cnn(CCO)c2)c2scc(-c3ccc(NC(=O)Nc4cccc(F)c4)cc3)c12 [ilorasertib, Ilorasertib] , write its reported half-life.
11.5

* * *

Assay remarks: Plasma pharmacokinetics, Arm I (oral QD), phase 1 trial
Assay type: in vivo, human
Condition context: human, in vivo, Mean t1/2
Quantity name: half-life

Given the molecule Nc1ncc(-c2cnn(CCO)c2)c2scc(-c3ccc(NC(=O)Nc4cccc(F)c4)cc3)c12 [ilorasertib, Ilorasertib] , write its reported half-life.
~12 h

* * *

Assay remarks: Plasma pharmacokinetics, Arm I (oral QD), phase 1 trial
Format: in vivo, human
Condition context: human, in vivo, po, 10 mg, t1/2 (harmonic mean)
Quantity name: half-life (h)
Number in h, nothing else.

Given the compound Nc1ncc(-c2cnn(CCO)c2)c2scc(-c3ccc(NC(=O)Nc4cccc(F)c4)cc3)c12 , write its reported half-life.
11.7

* * *

Assay remarks: Plasma pharmacokinetics, Arm III (i.v. infusion), phase 1 trial
Assay type: in vivo, human
Condition context: human, plasma, iv, 32 mg, Arm III i.v. infusion 32 mg, day 1, N=2, mean (individual)
Quantity name: AUC(0-t)

Given the compound Nc1ncc(-c2cnn(CCO)c2)c2scc(-c3ccc(NC(=O)Nc4cccc(F)c4)cc3)c12 , write its reported AUC(0-t).
8460 ng·h/mL

* * *

Assay remarks: Plasma pharmacokinetics, Arm III (i.v. infusion), phase 1 trial
Assay type: in vivo, human
Condition context: human, plasma, iv, 8 mg, Arm III i.v. infusion 8 mg, day 15, N=4; read-out: Cmax
Quantity name: Cmax (ng/mL)
Number in ng/mL, nothing else.

Given the molecule Nc1ncc(-c2cnn(CCO)c2)c2scc(-c3ccc(NC(=O)Nc4cccc(F)c4)cc3)c12 [ilorasertib, Ilorasertib] , write its reported Cmax.
250
